- METHOD DESCRIPTION: Compound was tested for its toxicity after oral administration to mice in experiment 1
- MEASUREMENT SETUP: mouse, in vivo
Exam item: assign Condition met to entries whose LD50 is below 1000 mg/kg and Condition not met to entries at or above 1000 mg/kg. Note that a value of exactly 1000 mg/kg receives Condition not met.

# input Say whether its LD50 is strictly beneath 1000 mg/kg. Entry: CC(C)(Sc1cc(C(C)(C)C)c(O)c(C(C)(C)C)c1)Sc1cc(C(C)(C)C)c(O)c(C(C)(C)C)c1 [PROBUCOL]
# output Condition not met

# input Say whether its LD50 is strictly beneath 1000 mg/kg. Entry: CC(C)(C)NC[C@H](O)COc1nsnc1N1CCOCC1 [TIMOLOL]
# output Condition not met

# input Say whether its LD50 is strictly beneath 1000 mg/kg. Entry: CC(C)(C)NCC(O)COc1cccc2c1C[C@H](O)[C@H](O)C2 (some centres undefined) [NADOLOL]
# output Condition not met

# input Say whether its LD50 is strictly beneath 1000 mg/kg. Entry: C=CCc1ccccc1OCC(O)CNC(C)C (centres undefined) [ALPRENOLOL]
# output Condition met

# input Say whether its LD50 is strictly beneath 1000 mg/kg. Entry: CC(C)(C)NCC(O)COc1ccccc1C#N (centres undefined) [BUNITROLOL]
# output Condition not met

# input Say whether its LD50 is strictly beneath 1000 mg/kg. Entry: CC(C)(C)NCC(O)COc1ccccc1OCC1CCCO1 (centres undefined) [BUFETOLOL]
# output Condition met

# input Say whether its LD50 is strictly beneath 1000 mg/kg. Entry: O=C(O)C1CCc2cc(C3CCCCC3)c(Cl)cc21 (centres undefined)
# output Condition met

# input Say whether its LD50 is strictly beneath 1000 mg/kg. Entry: CC(C)(C)NCC(O)COc1ccc(NC(=O)NC2CCCCC2)cc1 (centres undefined) [TALINOLOL]
# output Condition met
